# PROCEDURE DETAILS: NOD1 signaling inhibitors, primary screen, cell-based, luminescence, uHTS (AID 1578);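 note: HEK-293T reporter cells stimulated with the NOD1 agonist gamma-tri-DAP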
# TEST SETTINGS: NOD1-driven NF-kB luciferase reporter cells, at 4 µM
In all, about 290,000 compounds went through this assay and about 3,000 (1%) were called active. Cut-off read from the data, not from the text of the source: active = inhibition mostly above about 36% (no sharp cut-off); inactive = mostly below about 34%. Shown is part of a subset that was picked to be rich in actives.
Outcomes: t = active, f = inactive

CHEMICAL STRUCTURE | CLASS ASSIGNMENT
COc1cc2ncnc(NCc3ccccc3)c2cc1OC | f
CCOc1cc(Cl)c(NC(=O)CC)cc1OCC | f
O=C(OCc1ccccc1)c1cccnc1Cl | f
CCCCC(=O)Nc1cc(OCC)c(NC(=S)NC)cc1OCC | f
COc1cc2ncnc(NCc3cccc(Cl)c3)c2cc1OC | f
COc1ccccc1CNc1ncnc2cc(OC)c(OC)cc12 | f
OCCCCCNc1ncnc2ccccc12 | t

###

Quick reference for inhibition among some molecules
# PROCEDURE DETAILS: NOD1 signaling inhibitors, primary screen, cell-based, luminescence, uHTS (AID 1578);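 note: HEK-293T reporter cells stimulated with the NOD1 agonist gamma-tri-DAP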
# TEST SETTINGS: NOD1-driven NF-kB luciferase reporter cells, at 4 µM, hits give high values
The campaign covered roughly 290,000 compounds. About 3,000 (1%) were called active. The sample holds actives, similar compounds and a random draw of the others, so the mix is not that of the screen.
ASSAY ENDPOINT: inhibition (%)

MOLECULE | UNIT STRING | OBS VALUE
O=C(O)CN1CCCCCC1=O | % | -31.2
CC1CCC(C(=O)NC(C(=O)N2CCN(c3ccccn3)CC2)C(C)C)CC1 (stereo unspecified) | % | 68
CC1(C)CC(=O)C(C2=NC(C)(C)Cc3ccccc32)=C(O)C1 | % | -9.1
CC(C)[C@H](N)c1nnc(SCc2ccc(Cl)cc2)o1 | % | -4.6
CC1(C)Cc2ccccc2C2=NNC(=O)C2=N1 | % | 41.8
COc1ccc(Nc2nc(-c3ccc(OC)cc3)cs2)cc1 | % | -34.6

###

# PROCEDURE DETAILS: NOD1 signaling inhibitors, primary screen, cell-based, luminescence, uHTS (AID 1578);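 note: HEK-293T reporter cells stimulated with the NOD1 agonist gamma-tri-DAP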
# TEST SETTINGS: NOD1-driven NF-kB luciferase reporter cells, at 4 µM
The whole screen tested about 290,000 compounds, of which about 3,000 (1%) were called active. No stated cut-off is given here; in the data, active means inhibition mostly above about 36% (no sharp cut-off); inactive means mostly below about 34%. What follows is part of a selection rich in actives, with near analogues and random picks from the rest.
Outcomes: active, inactive

COMPOUND | CLASS ASSIGNMENT
COc1ccc(CCN2CC(C(=O)NC3CCCCC3)CC2=O)cc1OC (centres undefined) | inactive
C=C1C(C(=O)Nc2ccc(F)cc2)C1C(=O)Nc1ccc(F)cc1 (centres undefined) | inactive
COc1ccc(CCNC(=O)c2cc(C)oc2C)cc1 | inactive
O=C(Nc1scc(-c2cccs2)c1C(=O)O)c1cccs1 | inactive
COc1ccc(CC(=O)N/N=C\c2cc(Br)c(O)c(Br)c2)cc1 | inactive
Cc1ccc(NC2=CC(=O)CC(c3ccc(Cl)cc3)C2)cc1 (centres undefined) | inactive
CCN(CC)C(=O)CSC(Nc1ccc(F)cc1)=C(C#N)C#N | inactive
Cc1cccc(CSC(Nc2ccc(F)cc2)=C(C#N)C#N)c1 | active
CCC1=Nc2cc(C(=O)NCC3CCCO3)ccc2Sc2ccc(Cl)cc21 (centres undefined) | inactive
COc1cc(C(=O)Nc2sc(C)c(C)c2C(=O)O)cc(OC)c1OC | inactive
CCc1ccc(N/C(SCc2cccc(F)c2)=C(/C#N)C(=O)NCc2ccco2)cc1 | inactive
Cc1cc(Oc2ccccc2)nc(-c2ccccc2O)n1 | inactive
Cc1ccc2nc(-c3ccc(O)c(O)c3)cn2c1 | inactive
Cc1csc2c(N3CCN(C(=O)Nc4ccccc4)CC3)ncnc12 | inactive
Cc1ccc(-c2cn3cc(C)ccc3n2)cc1 | active
Cc1ccc(C(=O)N2CCCC(N3CCN(c4cccc(C(F)(F)F)c4)CC3)C2)s1 (centres undefined) | inactive
CNC(=S)N(CCc1c(C)[nH]c2ccc(C)cc12)Cc1cccnc1 | inactive
Cc1nnc(SCC(=O)O)s1 | inactive
Cc1ccc2nc(-c3ccccc3)cn2c1 | inactive
CCNC(=S)N(CCc1c(C)[nH]c2ccc(Cl)cc12)Cc1cccnc1 | inactive
O=C(OCCN=C1NS(=O)(=O)c2ccccc21)c1ccccc1F | inactive
COc1cc(C(=O)Nc2sc3c(c2C(=O)O)CCC3)cc(OC)c1OC | inactive
CNS(=O)(=O)c1cc(N(C)S(=O)(=O)c2ccc(C)cc2)c(C)cc1C | inactive
Cc1csc2c(N3CCN(C(=O)Nc4ccc(OC(F)(F)F)cc4)CC3)ncnc12 | inactive
